Tested on: MS2 coat protein
Experiment: apparent KD of MS2 coat protein; higher = weaker reporter binding
Details: Eterna round: R107; input ligand: tryptophan 2.4 mM
PROPERTY: apparent KD of MS2 coat protein (µM)
Output spec: scalar in µM, unitless text.

Illustrative cases are given below, each with its answer.
INSERT INTO results (ordered_residues, property, unit_name, measured) VALUES
  ('AUCAUGUAAUCAGAUACCAGACAUCUUUUAAUACAUAUUACAUGAGGAUCACCCAUGUUGGUCCCUUGGCAGCUGAAAUAUUUUU [JR_Nu_SSTheophyB_Sub027]', 'apparent KD of MS2 coat protein', 'µM', 0.246),
  ('UUGUUGUUUGGAAGGAGCGUGUAUGAUUAAGAACAUGAGGAUCACCCAUGUUGUAGGAUAGCACAGGUAGGUCGCCGGGUGGUGG [11.W]', 'apparent KD of MS2 coat protein', 'µM', 0.0146),
  ('GGACUAACCAGAAGGAGCGGCACGCAGAAACUGCAAAAUCCUCCACACGAGGAUCACCCGUGUCAGGUAGGUCGCUGGUUAGUCG', 'apparent KD of MS2 coat protein', 'µM', 0.0484);

Answer with apparent KD of MS2 coat protein of UCGAAUGCGGCGGCCGCCACUCGCGGAUAACGAUAGCUUAACAUGAGGAUCACCCAUGUGUCAUGGAGGACCGGGCCCAUACGGU [kmkmullin] measured for MS2 coat protein.
0.0143

Answer with apparent KD of MS2 coat protein of AUGUCAUUGGUGUAGCUGUGAAAUGGCGAUACCAGCGUGGAAACACGCCCUUGGCAGCGCCAAAACAUGAGGAUCACCCAUGUUA [Pardubice] measured for MS2 coat protein.
0.08

Answer with apparent KD of MS2 coat protein of UGUUUGGUGCGCGAGUGUUGGAUGAUUGAUACCAGUGAAGAAGAGCGCCCUUGGCAGCGAAUCCUAACAUGAGGAUCACCCAUGU [5.V] measured for MS2 coat protein.
0.0514

Answer with apparent KD of MS2 coat protein of UGUAUGUGAUCUGAUACCAGUCCAACUGGUAAAACCUGAGGAUCACCCGGGUAAAAUUGGGACCCUUGGCAGCAGAUCGCAUACU measured for MS2 coat protein.
0.683

Answer with apparent KD of MS2 coat protein of ACAUGAGGAUCACCCAUGUUCCUCGCCGAUACCAGUGAAGAAGAACGCCCUUGGCAGCGGAAAGAAUAUUUUGGAGAUGAGAUAU [6.V] measured for MS2 coat protein.
0.22

Answer with apparent KD of MS2 coat protein of UCAUGCAGGUCGGCCGCCACUACACACAUGAGGAUCACCCAUGUAGUUACUGGGUGAAGUGGCAGUAGGACCGGGACCUGCACAU [Brourdmod16] measured for MS2 coat protein.
0.46

Answer with apparent KD of MS2 coat protein of ACGACAUGAGGAUCACCCAUGUACUCUGAAGGAGCGUCGAUUACGACAGGUAGGUCGCAGGCUAAGGAUGGUGAUGCUCAAGACG [Exclusion Arginine A GF8] measured for MS2 coat protein.
0.0578

Answer with apparent KD of MS2 coat protein of GCACCAGGUACGGAUACCAGCUGCCAGCGUUACAUGAGGAUCACCCAUGUGAUCUGAUAUAGCCCUUGGCAGCUGUACCUGGUGC [SSThB NP+V+V2 #3 +-Same Structure] measured for MS2 coat protein.
0.0496
